- SYSTEM_NAME: c-Myc protein (Homo sapiens, UniProt P01106)
- Construct: endogenous in cells; host or cells: HL60 cells
- Sequence (P01106 whole entry): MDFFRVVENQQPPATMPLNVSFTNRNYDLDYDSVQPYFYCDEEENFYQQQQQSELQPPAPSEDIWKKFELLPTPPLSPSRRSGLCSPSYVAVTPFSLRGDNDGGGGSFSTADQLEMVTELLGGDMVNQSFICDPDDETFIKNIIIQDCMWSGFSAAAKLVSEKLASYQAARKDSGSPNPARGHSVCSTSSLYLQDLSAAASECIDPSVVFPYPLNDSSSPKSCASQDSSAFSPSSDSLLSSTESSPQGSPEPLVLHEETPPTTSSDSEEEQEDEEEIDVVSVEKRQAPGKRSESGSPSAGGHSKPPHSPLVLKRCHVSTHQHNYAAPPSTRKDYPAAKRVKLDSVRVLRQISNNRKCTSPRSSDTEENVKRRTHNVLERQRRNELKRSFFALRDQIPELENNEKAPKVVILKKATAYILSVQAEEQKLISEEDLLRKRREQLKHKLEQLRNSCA
- ASSAY_NAME: Ability of compounds to degrade c-Myc protein in HL60 cells (ELISA)
- Assay type: cell-based
- RUN_PARAMETERS: HL-60, 1 μM compound, 24 h, read-out: HL60 cells Protein degradation rate (1 μM)
PROPERTY_NAME: inhibition at 1 µM

| MOLECULE | inhibition at 1 µM |
| --- | --- |
| O=C(CN(c1ccccc1)c1ccccc1)NCCCCCCNC(=O)c1ccc2c(c1)C(=O)N(C1CCC(=O)NC1=O)C2=O (stereo not shown) | 30 to 60% |

Challenge: # return recorded inhibition at 1 µM for entry N#Cc1ccccc1CC(=O)NCc1ccc(CNC(=O)c2ccc3c(c2)C(=O)N(C2CCC(=O)NC2=O)C3=O)cc1 (stereo not shown)
Response given: 60 to 90%

Challenge: # return recorded inhibition at 1 µM for entry O=C(Cc1cccc2ccccc12)NCCCCCCNC(=O)c1ccc2c(c1)C(=O)N(C1CCC(=O)NC1=O)C2=O (stereo not shown)
Response given: 30 to 60%

Challenge: # return recorded inhibition at 1 µM for entry NCC(=O)OCN1C(=O)CCC(N2Cc3cc(C(=O)NCc4ccc(CNC(=O)Cn5c6ccccc6c6cccnc65)cc4)ccc3C2=O)C1=O (stereo not shown)
Response given: 30 to 60%

Challenge: # return recorded inhibition at 1 µM for entry O=C(Cc1cccc2ccccc12)NC[C@H]1CC[C@H](CNC(=O)c2ccc3c(c2)C(=O)N(C2CCC(=O)NC2=O)C3=O)CC1 (stereo partly shown)
Response given: 30 to 60%

Challenge: # return recorded inhibition at 1 µM for entry O=C(Cn1c2ccccc2c2cccnc21)NCCCCCCCCCc1ccc2c(c1)C(=O)N(C1CCC(=O)NC1=O)C2=O (stereo not shown)
Response given: 60 to 90%

Challenge: # return recorded inhibition at 1 µM for entry CN(CCc1cccc2ccccc12)Cc1ccc(C(C)(C)NC(=O)c2ccc3c(c2)C(=O)N(C2CCC(=O)NC2=O)C3=O)cc1 (stereo not shown)
Response given: 60 to 90%

###

- SYSTEM_NAME: c-Myc protein (Homo sapiens)
- Construct: endogenous in cells; host or cells: HL60 cells
- ASSAY_NAME: Ability of compounds to degrade c-Myc protein in HL60 cells (ELISA)
- Format: cell-based
- RUN_PARAMETERS: HL-60, 1 μM compound, 24 h, read-out: HL60 cells Protein degradation rate (1 μM)
PROPERTY_NAME: inhibition at 1 µM

| COMPOUND | SYSTEM_NAME | inhibition at 1 µM |
| --- | --- | --- |
| CC(C)C(=O)N(CCc1cccc2ccccc12)Cc1ccc(CNC(=O)c2ccc3c(c2)C(=O)N(C2CCC(=O)NC2=O)C3=O)cc1 (stereo not shown) | c-Myc protein (Homo sapiens) | 60 to 90% |
| CC(C)(C)OC(=O)NC[C@H]1CC[C@H](CNc2ccc3c(c2)C(=O)N(C2CCC(=O)NC2=O)C3=O)CC1 (stereo partly shown) | c-Myc protein (Homo sapiens) | 60 to 90% |
| O=C1CCC(N2C(=O)c3ccc(C(=O)NCCCCCCNC(=O)NC4c5ccccc5-c5ccccc54)cc3C2=O)C(=O)N1 (stereo not shown) | c-Myc protein (Homo sapiens) | 10 to 30% |

Proceed to the following item.
Challenge: # return recorded inhibition at 1 µM for entry O=C(Cn1c2ccccc2c2cccnc21)NCCCCCCCCOc1ccc2c(c1)C(=O)N(C1CCC(=O)NC1=O)C2=O (stereo not shown)
Response given: 30 to 60%
